# target_under_test: HLA-A*03:01
# experiment_description: IEDB peptide-MHC binding, purified MHC/competitive/radioactivity; filed as Kd, often an IC50 or EC50 that approximates it; bounds were set here for any values at or beyond the usual limits of such assays
# measurement_setup: source organism: Homo sapiens
pKd: −log10 of the molar value.
measurement_type: pKd

(P) TLGWLLQTPK
(Q) KVLRENTSPK
Could you tell me which of P and Q has the lower pKd reading? Select an item and report its label. Q

* * *

# target_under_test: HLA-A*02:11
# experiment_description: IEDB peptide-MHC binding, purified MHC/direct/fluorescence; filed as Kd, often an IC50 or EC50 that approximates it; bounds were set here for any values at or beyond the usual limits of such assays
# measurement_setup: source organism: Dengue virus 2 Thailand/16681/84
measurement_type: Kd

Find the recorded Kd belonging to `KMDIGVPLL` and report it. ≤ 1 nM

* * *

Attribute: Kd
# target_under_test: HLA-B*07:02
# experiment_description: IEDB peptide-MHC binding, purified MHC/competitive/radioactivity; filed as Kd, often an IC50 or EC50 that approximates it; bounds were set here for any values at or beyond the usual limits of such assays
# measurement_setup: source organism: Dengue virus 1 Brazil/97-11/1997
Write down the numeric answer in nM and omit the unit.

Examples from the recorded data:
{"columns": ["polymer_sequence", "Kd, nM"],
 "data": [
  ["VPNYNMIIM", 54],
  ["GPLIAGGML", 127]
]}

Could you share which Kd value was measured for `TPQAPTSEIQ` ? 808

* * *

Catalogue of sequences with associated pKd
# target_under_test: HLA-B*58:01
# experiment_description: IEDB peptide-MHC binding, purified MHC/direct/fluorescence; filed as Kd, often an IC50 or EC50 that approximates it; bounds were set here for any values at or beyond the usual limits of such assays
# measurement_setup: source organism: Pseudomonas aeruginosa UCBPP-PA14
pKd: −log10 of the molar value.

{"columns": ["polymer_sequence", "pKd"],
 "data": [
  ["ANPGRVKDW", "≤ 4.70"]
]}

Turning now to a further record.
// returns reported pKd for input `RDYRTISPR` ≤ 4.70

* * *

# target_under_test: HLA-B*40:01
# experiment_description: IEDB peptide-MHC binding, purified MHC/competitive/radioactivity; filed as Kd, often an IC50 or EC50 that approximates it; bounds were set here for any values at or beyond the usual limits of such assays
# measurement_setup: source organism: Mammarenavirus choriomeningitidis
measurement_type: pKd
Notebook: values listed as pKd are -log10 of the concentration (mol/L).

Consider the sequence shown here: `AELLPDTTYL` What is its recorded pKd? 5.01

* * *

# target_under_test: HLA-A*03:01
# experiment_description: IEDB peptide-MHC binding, purified MHC/direct/fluorescence; filed as Kd, often an IC50 or EC50 that approximates it; bounds were set here for any values at or beyond the usual limits of such assays
# measurement_setup: source organism: Pasteurella multocida
measurement_type: Kd

Recorded Kd of `SQLEMCEKY` , please. ≥ 20 µM

* * *

# target_under_test: HLA-A*68:02
# experiment_description: IEDB peptide-MHC binding, purified MHC/competitive/fluorescence; filed as Kd, often an IC50 or EC50 that approximates it; bounds were set here for any values at or beyond the usual limits of such assays
# measurement_setup: source organism: Plesiomonas shigelloides
measurement_type: Kd

Entry `LLFRMILNY` has what Kd? ≥ 20 µM

* * *

# target_under_test: HLA-B*38:01
# experiment_description: IEDB peptide-MHC binding, purified MHC/direct/fluorescence; filed as Kd, often an IC50 or EC50 that approximates it; bounds were set here for any values at or beyond the usual limits of such assays
# measurement_setup: source organism: Vibrio cholerae V52
measurement_type: Kd

Item under review: `EVNAHIHTM` . Reported Kd? ≥ 20 µM

* * *

# target_under_test: HLA-A*29:02
# experiment_description: IEDB peptide-MHC binding, purified MHC/competitive/radioactivity; filed as Kd, often an IC50 or EC50 that approximates it; bounds were set here for any values at or beyond the usual limits of such assays
# measurement_setup: source organism: Vaccinia virus WR
pKd: −log10 of the molar value.
measurement_type: pKd

Look at this sequence and give its reported pKd. `DMFLTSVINR` ≤ 4.37

* * *

# target_under_test: HLA-A*23:01
# experiment_description: IEDB peptide-MHC binding, purified MHC/competitive/radioactivity; filed as Kd, often an IC50 or EC50 that approximates it; bounds were set here for any values at or beyond the usual limits of such assays
# measurement_setup: source organism: Mammarenavirus machupoense
pKd: −log10 of the molar value.
measurement_type: pKd

What is its pKd for HLA-A*23:01? Entry: `CGDPSSFEY` ≤ 4.11

* * *

# target_under_test: HLA-B*27:03
# experiment_description: IEDB peptide-MHC binding, purified MHC/direct/fluorescence; filed as Kd, often an IC50 or EC50 that approximates it; bounds were set here for any values at or beyond the usual limits of such assays
# measurement_setup: source organism: Salmonella enterica subsp. enterica serovar Typhimurium str. LT2
measurement_type: Kd

Tell me the measured Kd of `FKYDSTKPL` , please. ≥ 20 µM

* * *

# target_under_test: HLA-A*26:01
# experiment_description: IEDB peptide-MHC binding, purified MHC/competitive/fluorescence; filed as Kd, often an IC50 or EC50 that approximates it; bounds were set here for any values at or beyond the usual limits of such assays
# measurement_setup: source organism: Orthohantavirus andesense
measurement_type: Kd

Given `SIKFKRKLM` , state its recorded Kd. ≥ 20 µM

* * *

# target_under_test: HLA-B*15:42
# experiment_description: IEDB peptide-MHC binding, purified MHC/competitive/fluorescence; filed as Kd, often an IC50 or EC50 that approximates it; bounds were set here for any values at or beyond the usual limits of such assays
# measurement_setup: source organism: Giardia lamblia ATCC 50803
measurement_type: Kd

I would be grateful if you could share the reported Kd for `MTYLDGHPV` . ≥ 5 µM

* * *

# target_under_test: HLA-A*68:01
# experiment_description: IEDB peptide-MHC binding, purified MHC/competitive/radioactivity; filed as Kd, often an IC50 or EC50 that approximates it; bounds were set here for any values at or beyond the usual limits of such assays
# measurement_setup: source organism: Vaccinia virus WR
measurement_type: Kd (nM)
Express the result in nM but write the number alone.

Study these solved cases before continuing.
{"columns": ["polymer_sequence", "target_under_test", "measurement_units", "Kd"],
 "data": [
  ["EIKQGRVNK", "HLA-A*68:01", "nM", 88.4],
  ["KQYDSTDFK", "HLA-A*68:01", "nM", 1860],
  ["TISKDNLER", "HLA-A*68:01", "nM", 18.1],
  ["QITTDDLVK", "HLA-A*68:01", "nM", 436],
  ["MFLTSVINR", "HLA-A*68:01", "nM", 18.8]
]}

# Kd lookup, item `YITIQDRPR` 26.2

Need Kd of `KSISSMTIR` , thanks. 832

Looking for the measured Kd of `LSPAHLINK` , can you help? 16300

Kd lookup needed for `SVNEYHMLK` , thanks. 2.24

I would be grateful if you could share the reported Kd for `IQRFSSLRR` . 11900

Can you share its Kd? I mean this sequence: `DVDIYDAVR` 179

* * *

# target_under_test: HLA-A*24:03
# experiment_description: IEDB peptide-MHC binding, purified MHC/direct/fluorescence; filed as Kd, often an IC50 or EC50 that approximates it; bounds were set here for any values at or beyond the usual limits of such assays
# measurement_setup: source organism: Campylobacter jejuni
measurement_type: Kd (nM)
Reply with just the number (in nM).

For `VFKVKLHEI` , what is its reported Kd? 92.3

* * *

# target_under_test: HLA-B*08:02
# experiment_description: IEDB peptide-MHC binding, purified MHC/direct/fluorescence; filed as Kd, often an IC50 or EC50 that approximates it; bounds were set here for any values at or beyond the usual limits of such assays
# measurement_setup: source organism: Influenza A virus H3N2
measurement_type: Kd

Look at this sequence and give its reported Kd. `VTTEVAFGL` ≥ 20 µM

* * *

# target_under_test: HLA-A*02:01
# experiment_description: IEDB peptide-MHC binding, purified MHC/competitive/fluorescence; filed as Kd, often an IC50 or EC50 that approximates it; bounds were set here for any values at or beyond the usual limits of such assays
# measurement_setup: source organism: Influenza A virus (A/chicken/Fujian/25/00(H9N2))
measurement_type: Kd (nM)
The reply should be a number in nM, with the unit left off.

Recorded Kd of `WMMAMRYPI` , please. 0.2

* * *

# target_under_test: HLA-B*57:01
# experiment_description: IEDB peptide-MHC binding, purified MHC/competitive/fluorescence; filed as Kd, often an IC50 or EC50 that approximates it; bounds were set here for any values at or beyond the usual limits of such assays
# measurement_setup: source organism: Vibrio vulnificus CMCP6
pKd: −log10 of the molar value.
measurement_type: pKd

Please look up its pKd: `LEMNDAPTA` ≤ 4.70

Source of measurements: the Immune Epitope Database (IEDB)
